- SUBJECT_OF_TEST: Cynomolgus T cell receptor on cynomolgus primary T cells (cynomolgus monkey)
- TEST_METHOD_NOTES: cell-based or functional assay; note: test concentration or dose not given here
# % Lysis, T cell mediated MOLM-13 cell killing, cynomolgus primary T cells, E:T 10:1 values compiled below
Kindly report the value followed by its unit.

BINDER	VALUE
T017000640 (bispecific antibody, also called A0110056A10(E1D)-35GS-T0170056G05(L11V, G26W, L34Y, G35T, M77T, K83R, V89L, F91Y, F95L, Y99W)-A) DVQLVESGGGLVQAGGSLRLSCAASGITSKINDMGWYRQTPGNYREWVASITATGTTNYRDSVKGRFTISRDNAKSTVYLQMNSLKPEDTTVYYCNTFPPISNFWGQGTLVTVSSGGGGSGGGGSGGGGSGGGGSGGGGSGGGGSGGGGSEVQLVESGGGVVQPGGSLRLSCVASWDVHKINFYTWYRQAPGKEREKVAHISIGDQTDYADSAKGRFTISRDESKNTVYLQMNSLRPEDTALYYCRALSRIWPYDYWGQGTLVTVSSA	6%

The record that follows has no % Lysis, T cell mediated MOLM-13 cell killing, cynomolgus primary T cells, E:T 10:1 shown yet.
Could you tell me which % Lysis, T cell mediated MOLM-13 cell killing, cynomolgus primary T cells, E:T 10:1 is on file for T017000636 (bispecific antibody) DVQLVESGGGVVQPGGSLRLSCVASWDVHQINFYGWYRQAPGKEREKVAHISIGDQTDYADSAKGRFTISRDESKNTVYLQMNSLRPEDTALYYCRALSRIWPYDYWGQGTLVTVSSGGGGSGGGGSGGGGSGGGGSGGGGSGGGGSGGGGSEVQLVESGGGLVQAGGSLRLSCAASGITSKINDMGWYRQTPGNYREWVASITATGTTNYRDSVKGRFTISRDNAKSTVYLQMNSLKPEDTTVYYCNTFPPISNFWGQGTLVTVSSA ?
20%
